System: A498
Assay: Anticancer activity against human A498 cells after 48 hrs by SRB assay
Type: functional
Conditions: A498, 48 h
PROPERTY MEASURED: GI50 (µM)
One number for each entry, in µM.

Solved entries (count: 3):
- O=C(NCCNc1nccc(-c2c(-c3cccc(O)c3)nc3sccn23)n1)c1ccccc1: 3.68
- O=C(NCCNc1nccc(-c2c(-c3cccc(O)c3)nc3sccn23)n1)c1ccccc1O: 14.5
- COc1cccc(-c2nc3sccn3c2-c2ccnc(NCCNC(=O)Nc3cccc(C(F)(F)F)c3)n2)c1: 2.44

Record O=C(NCCNc1nccc(-c2c(-c3cccc(O)c3)nc3sccn23)n1)Nc1cccc(C(F)(F)F)c1 : what is its GI50 with A498?
7.33

---

Test system: HT-29
Test: Anticancer activity against human HT-29 cells assessed as cell growth at 10^-5 M after 48 hrs by SRB assay
Assay type: functional
Settings: HT-29, 48 h, read-out: Activity
PROPERTY MEASURED: growth at 10 µM (%)
Numbers only, in %.

Some solved entries appear below for comparison.
* COc1cccc(-c2nc3sccn3c2-c2ccnc(NCCNC(=O)c3cc(N4CCOCC4)cc(C(F)(F)F)c3)n2)c1 | 58.5
* O=C(NCCNc1nccc(-c2c(-c3cccc(O)c3)nc3sccn23)n1)Nc1cc(C(F)(F)F)cc(C(F)(F)F)c1 | 63.1
* COc1cccc(-c2nc3sccn3c2-c2ccnc(NCCNC(=O)c3ccc(N4CCOCC4)c(C(F)(F)F)c3)n2)c1 | 50

Now for the molecule whose growth at 10 µM we want.
What measured growth at 10 µM goes with COc1cccc(-c2nc3sccn3c2-c2ccnc(NCCNC(=O)Nc3ccccc3)n2)c1 ?
87.5

---

Test system: NCI-H522
Assay: Anticancer activity against human NCI-H522 cells after 48 hrs by SRB assay
Format: functional
Conditions: NCI-H522, 48 h
PROPERTY MEASURED: GI50 (µM)
Give bare numbers, in µM.

// known answers, use as guide
- O=C(NCCNc1nccc(-c2c(-c3cccc(O)c3)nc3sccn23)n1)Nc1cccc(C(F)(F)F)c1: 2.11
- O=C(NCCNc1nccc(-c2c(-c3cccc(O)c3)nc3sccn23)n1)c1ccccc1O: 4.83
- O=C(NCCNc1nccc(-c2c(-c3cccc(O)c3)nc3sccn23)n1)c1ccccc1: 5.76

Please examine the following record next.
Given the molecule COc1cccc(-c2nc3sccn3c2-c2ccnc(NCCNC(=O)Nc3cccc(C(F)(F)F)c3)n2)c1 , what is its reported GI50?
2.67

---

Tested on: MDA-MB-468
Experiment: Anticancer activity against human MDA-MB-468 cells assessed as cell growth at 10^-5 M after 48 hrs by SRB assay
Format: functional
Conditions: MDA-MB-468, 48 h, read-out: Activity
PROPERTY MEASURED: growth at 10 µM (%)
One number for each entry, in %.

Completed entries (count: 3):
- COc1cccc(-c2nc3sccn3c2-c2ccnc(NCCNC(=O)c3cc(N4CCOCC4)cc(C(F)(F)F)c3)n2)c1: 98.1
- COc1cccc(-c2nc3sccn3c2-c2ccnc(NCCNC(=O)Nc3cccc(C(F)(F)F)c3)n2)c1: 39.6
- O=C(NCCNc1nccc(-c2c(-c3cccc(O)c3)nc3sccn23)n1)Nc1ccccc1: 51.1

Each of the following entries comes with a recorded value; kindly state growth at 10 µM for each.
1. O=C(NCCNc1nccc(-c2c(-c3cccc(O)c3)nc3sccn23)n1)c1ccccc1O
2. O=C(NCCNc1nccc(-c2c(-c3cccc(O)c3)nc3sccn23)n1)c1cc(C(F)(F)F)cc(C(F)(F)F)c1
3. COc1cccc(-c2nc3sccn3c2-c2ccnc(NCCNC(=O)c3ccc(N4CCOCC4)c(C(F)(F)F)c3)n2)c1

1. 52
2. 101
3. 90.5

List growth at 10 µM for every entry below, keeping the order given.
1. O=C(NCCNc1nccc(-c2c(-c3cccc(O)c3)nc3sccn23)n1)c1ccc(N2CCOCC2)c(C(F)(F)F)c1
2. COc1cccc(-c2nc3sccn3c2-c2ccnc(NCCNC(=O)c3ccccc3)n2)c1

50.2
79.4
